molecular target: Platelet-derived growth factor receptor alpha (Homo sapiens); conditions: at 1 µM;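 also: values are mean percent inhibition of PDGFRA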
Item-by-item account of inhibition
Numbers only here, please. The scale is %.

| QUERY SMILES | inhibition, % |
| --- | --- |
| CN(C)c1ccc2c(c1)/C(=C/Nc1ccc(S(N)(=O)=O)cc1)C(=O)N2 | 66.9 |

Tell me measured inhibition for COC(=O)Nc1nc2ccc(Sc3ccc(NC(=O)Nc4cc(C(F)(F)F)ccc4F)cc3)cc2[nH]1 please.
57.6

Tell me measured inhibition for NS(=O)(=O)c1ccc(Nc2cc(-c3ccc(O)c(F)c3)n[nH]2)cc1 please.
61.5

Tell me measured inhibition for CS(=O)(=O)CCNCc1cc(-c2cc3c(Nc4ccc(OCc5cccc(F)c5)c(Cl)c4)ncnc3s2)cs1 please.
13.6

###

biological target: Tyrosine-protein kinase TXK (Homo sapiens) (UniProt P42681); details: at 0.1 µM;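 also: each listed value is a mean percent inhibition of TXK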
Sequence (P42681 whole entry): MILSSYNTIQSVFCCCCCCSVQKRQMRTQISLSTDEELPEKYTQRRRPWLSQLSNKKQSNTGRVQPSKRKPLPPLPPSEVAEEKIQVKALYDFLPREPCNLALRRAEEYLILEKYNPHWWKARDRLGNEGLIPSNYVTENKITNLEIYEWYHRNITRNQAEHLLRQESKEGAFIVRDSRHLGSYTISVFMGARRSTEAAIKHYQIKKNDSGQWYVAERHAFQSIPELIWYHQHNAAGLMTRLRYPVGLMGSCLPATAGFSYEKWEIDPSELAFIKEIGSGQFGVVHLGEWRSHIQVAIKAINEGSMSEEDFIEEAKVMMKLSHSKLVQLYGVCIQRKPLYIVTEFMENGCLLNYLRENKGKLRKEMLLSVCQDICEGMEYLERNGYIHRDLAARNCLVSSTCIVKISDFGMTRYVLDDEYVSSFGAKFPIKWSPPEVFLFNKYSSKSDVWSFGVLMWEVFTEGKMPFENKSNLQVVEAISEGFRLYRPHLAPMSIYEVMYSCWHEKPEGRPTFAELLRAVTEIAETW
Item-by-item account of inhibition
Please don't drop the unit; write it after the number.

# count of solved cases: 10
| QUERY SMILES | REPORTED MEASUREMENT |
| --- | --- |
| Clc1ccc(CNc2nccc(-c3cnn4ncccc34)n2)cc1 | 2.07% |
| FC(F)(F)c1cccc(Nc2nccc(-c3cnn4nc(-c5ccccc5)ccc34)n2)c1 | -1.01% |
| O=C(Nc1n[nH]c2nc(-c3ccco3)ccc12)C1CC1 | 2.21% |
| Fc1ccc(-c2ncn(C3CCNCC3)c2-c2ccnc(Oc3ccc(F)c(F)c3)n2)cc1 | -5.36% |
| Cc1ccc(C(=O)NC2CCC2)cc1-c1ccc(C(=O)NCC2CC2)cc1 | 2.58% |
| O=C(Nc1n[nH]c2nc(-c3ccc(O)cc3)c(Br)cc12)C1CC1 | 4.99% |
| NS(=O)(=O)c1ccc(N/N=C2\C(=O)Nc3ccc(-c4cnco4)cc32)cc1 | -3.23% |
| CN(C)CCCNc1nccc(-c2c(-c3ccc(F)cc3)nn3cc(C(F)(F)F)ccc23)n1 | -0.89% |
| Fc1ccc(-c2nc3n(c2-c2ccncc2)CCS3)cc1 | -0.13% |
| COc1cc(N2CCN(C(C)C)CC2)ccc1Nc1nc(Nc2ccc(F)cc2C(=O)NC[C@@H](O)CO)c2cc[nH]c2n1 | -1.48% |

Tell me measured inhibition for COc1ccc(-c2ccc3c(NC(=O)C4CC4)n[nH]c3n2)cc1 please.
2.08%

Tell me measured inhibition for CCc1cccc(CC)c1/C=C/c1cncc(C(=O)NC)c1 please.
3.65%

Tell me measured inhibition for C#Cc1cccc(Nc2ncnc3ccc(OCCCCNCCS(C)(=O)=O)cc23)c1 please.
5.2%

###

biological target: G protein-coupled receptor kinase 6 (Homo sapiens); conditions: at 1 µM;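 also: values are averaged percent inhibition of GRK6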
ENDPOINT LABEL: inhibition (%)
Numbers only here, please. The scale is %.

Please look at Cc1ccc(C(=O)NC(C)C)cc1-c1ccc(C(=O)NCC2CC2)cc1 and tell me its recorded inhibition on G protein-coupled receptor kinase 6 (Homo sapiens).
-2.12

Please look at CCS(=O)(=O)c1ccc(OC)c(Nc2ncc(-c3cccc(-c4ccccc4F)c3)o2)c1 and tell me its recorded inhibition on G protein-coupled receptor kinase 6 (Homo sapiens).
-0.56

Please look at CCC(=O)Nc1ccc(C)c(-c2ccc(C(=O)NCC3CC3)cc2)c1 and tell me its recorded inhibition on G protein-coupled receptor kinase 6 (Homo sapiens).
3.82

Please look at Fc1ccc(-c2c(-c3ccncc3)nc3n2CCS3)cc1 and tell me its recorded inhibition on G protein-coupled receptor kinase 6 (Homo sapiens).
4.18

Please look at CCc1ccc(Oc2nccc(-c3c(-c4ccc(F)cc4)ncn3C3CCNCC3)n2)cc1 and tell me its recorded inhibition on G protein-coupled receptor kinase 6 (Homo sapiens).
4.51

Hey, just so you know, these numbers are from ChEMBL document CHEMBL1961873.
